- System: HeLa cells
- measurement description: MTT viability assay
- Format: cell-based
- measurement conditions: 24 h of incubation, 4-parameters logistic fit, triplicate, read-out: IC50 cytotoxicity
property measured: pIC50
Please express pIC50 as -log10 of the molar concentration.

Challenge: Requested read-out: pIC50. Entry: CCCCc1ccc(/N=N/c2ccc(OCCCOc3c4cc(S(=O)(=O)[O-])cc3Cc3cc(S(=O)(=O)[O-])cc(c3O)Cc3cc(S(=O)(=O)[O-])cc(c3O)Cc3cc(S(=O)(=O)[O-])cc(c3O)C4)cc2)cc1.[Li+].[Li+].[Li+].[Li+] [E-2]
Response given: 4.77

Challenge: One more molecule: CCCCc1ccc(/N=N\c2ccc(OCCCOc3c4cc(S(=O)(=O)[O-])cc3Cc3cc(S(=O)(=O)[O-])cc(c3O)Cc3cc(S(=O)(=O)[O-])cc(c3O)Cc3cc(S(=O)(=O)[O-])cc(c3O)C4)cc2)cc1.[Li+].[Li+].[Li+].[Li+] [Z-2]
Response given: 4.72
